remaining at 2 h, 5 µM values by entry
# test-method-notes: Metabolic stability in human liver microsomes assessed as compound remaining at 5 uM after 2 hrs in presence of NADPH by LC/MS/MS analysis
# Type: ADME
# condition-label: read-out: Stability
Give the quantity in %, number only.

Cn1c([N+](=O)[O-])cnc1C(=O)N1CCOCC1: 97
O=C(c1ncc([N+](=O)[O-])[nH]1)N1CCOCC1: 100
O=C(NCc1ccc(F)cc1)c1ncc([N+](=O)[O-])[nH]1: 94
Cn1c([N+](=O)[O-])cnc1C(=O)NCc1ccc(F)cc1: 88

Shifting focus to the molecule that follows.
Consider the molecule shown here: Cc1ncc([N+](=O)[O-])n1CCO What is its recorded remaining at 2 h, 5 µM?
100
